Cited source: the supplement of paper PMC9170038

System: MS2 coat protein
Assay: apparent KD of MS2 coat protein; designed switch direction (-1 OFF switch, 1 ON switch): -1; higher = weaker reporter binding
Conditions: input ligand: none
reportedProperty: apparent KD of MS2 coat protein

Indicate the recorded apparent KD of MS2 coat protein value for this sequence: AGGUGCUUCUGGAGACAUGAGGAUCACCCAUGUUGAGUUAGCGAGGAUAUCGGUAAUGCAUGUGAUGAGAAGGCGCAAACCGAU [Ex NG3 #48] (Eterna round: R96, puzzle: Exclusion NG 3)
46.1 nM

Determine from records and report apparent KD of MS2 coat protein for UAUUCACAUGAGGAUCACCCAUGUCAGGAUAUAGAAGCGUAGUCCGCAAGAAAGCUUACUAGAAGGGACGUAUU [EX1 B.22] (Eterna round: R97, puzzle: Exclusion 1)
18.5 nM

Identify the reported apparent KD of MS2 coat protein for the following entry. CCAGAGGAAGGAUAUUAAGGCGUAUACAUGAGGAUCACCCAUGUCCUACACUUCGCACUAUAAGAAGGUUCCCGGA [Eternabot (Original) Solution 39] (Eterna round: R97, puzzle: Exclusion 5)
121 nM
